# ASSAY_REMARKS: Differential index, LC50 for rat NRK 52E cells to LC50 for rat K-ras transformed NRK K/1 cells
# Format: ADME, cell-based
# RECORDED_CONDITIONS: NRK 52E cells versus K-ras transformed NRK K/1 cells
# Lookup of reported selectivity ratio keyed by entry
No unit in the answer, please; the number alone is enough.

A selection of reference data follows.
## Task Provide selectivity ratio value for the following compound: CC(=O)NC1=CC(=O)c2ccc(-c3nc(C(=O)OCCN(C)C)cc4c3[nH]c3ccccc34)nc2C1=O
## Result 2.6

## Task Provide selectivity ratio value for the following compound: CCCC(=O)NC1=CC(=O)c2ccc(-c3nc(C(=O)OCCC(C)C)cc4c3[nH]c3ccccc34)nc2C1=O
## Result 1.6

Next:
## Task Provide selectivity ratio value for the following compound: CCCC(=O)NC1=CC(=O)c2ccc(-c3nc(C(=O)OC)cc4c3[nH]c3ccccc34)nc2C1=O
## Result 1.4

## Task Provide selectivity ratio value for the following compound: CC(C)CCOC(=O)c1cc2c([nH]c3ccccc32)c(-c2ccc3c(n2)C(=O)C(NC(=O)CCl)=CC3=O)n1
## Result 2.4
